- experimental_system: Focal adhesion kinase 1 (Homo sapiens) (UniProt Q05397)
- Sequence (Q05397 whole entry, looked up): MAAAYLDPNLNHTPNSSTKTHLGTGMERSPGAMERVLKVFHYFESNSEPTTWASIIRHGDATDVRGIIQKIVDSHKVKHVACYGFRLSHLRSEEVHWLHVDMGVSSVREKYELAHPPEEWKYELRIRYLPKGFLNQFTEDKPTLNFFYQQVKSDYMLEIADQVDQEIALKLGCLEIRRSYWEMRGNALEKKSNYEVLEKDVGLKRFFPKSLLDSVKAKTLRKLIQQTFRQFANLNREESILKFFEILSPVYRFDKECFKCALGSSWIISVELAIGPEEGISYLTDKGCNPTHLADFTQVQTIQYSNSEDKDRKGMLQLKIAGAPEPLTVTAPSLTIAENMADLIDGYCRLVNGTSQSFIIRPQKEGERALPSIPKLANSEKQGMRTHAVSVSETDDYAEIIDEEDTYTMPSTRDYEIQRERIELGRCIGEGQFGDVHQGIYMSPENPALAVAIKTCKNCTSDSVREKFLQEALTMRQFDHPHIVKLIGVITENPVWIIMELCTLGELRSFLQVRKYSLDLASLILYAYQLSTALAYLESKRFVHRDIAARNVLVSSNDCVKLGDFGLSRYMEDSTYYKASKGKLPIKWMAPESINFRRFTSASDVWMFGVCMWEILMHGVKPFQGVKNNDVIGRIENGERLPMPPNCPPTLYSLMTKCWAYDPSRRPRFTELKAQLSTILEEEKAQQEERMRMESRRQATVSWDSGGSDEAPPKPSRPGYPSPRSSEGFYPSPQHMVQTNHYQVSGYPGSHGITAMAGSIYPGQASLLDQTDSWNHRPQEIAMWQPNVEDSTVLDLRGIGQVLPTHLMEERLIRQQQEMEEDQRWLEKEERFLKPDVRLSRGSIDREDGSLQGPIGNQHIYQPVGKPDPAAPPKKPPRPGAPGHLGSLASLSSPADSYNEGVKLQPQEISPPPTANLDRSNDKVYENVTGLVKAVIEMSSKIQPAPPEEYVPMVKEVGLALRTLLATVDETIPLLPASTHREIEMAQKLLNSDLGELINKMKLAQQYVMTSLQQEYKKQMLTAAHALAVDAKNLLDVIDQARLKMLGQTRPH
- measurement_notes: small-molecule microarray binders of FAK, primary screen, biochemical, 635/667 nm fluorescence, BSA, DTT (AID 1130);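 also: composite of spot emission at 667 nm and signal to noise over triplicate slides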
- condition_set: PTK2 binding, 635 nm fluorescence, higher = more signal
property_name: composite z-score
Number only, please.

Assign composite z-score to the following record: `CC(C)CON=C1C[C@@H](O)[C@@H](O)[C@@H]2[C@@H]3C(=O)N(Cc4ccc5c(c4)OCO5)C(=O)[C@@H]3CC[C@H]12`
0.0874

Assign composite z-score to the following record: `CC(C)CON=C1C[C@@H](O)[C@@H](O)[C@@H]2[C@@H]3C(=O)N(C[C@@H]4CCCO4)C(=O)[C@@H]3CC[C@@H]12`
0.348

Assign composite z-score to the following record: `COC(=O)CC=C[C@@H](C)[C@@H](C=NO[C@H](C)c1cn([C@H](CO)Cc2ccccc2)nn1)NS(=O)(=O)c1ccc(C)cc1`
0.608

Assign composite z-score to the following record: `COc1cccc([C@H]2Oc3ccc(OC)cc3C(=NOC[C@@H](O)[C@H]3O[C@@H]4OC(C)(C)O[C@@H]4[C@H]3O)[C@@H]2O)c1`
0.263
